biological target: cynomolgus monkey IL-2Rγ/CD132 subunit (cynomolgus monkey); assay: ELISA, monovalent VHH-hFc
Sequence (chain, as listed by the source): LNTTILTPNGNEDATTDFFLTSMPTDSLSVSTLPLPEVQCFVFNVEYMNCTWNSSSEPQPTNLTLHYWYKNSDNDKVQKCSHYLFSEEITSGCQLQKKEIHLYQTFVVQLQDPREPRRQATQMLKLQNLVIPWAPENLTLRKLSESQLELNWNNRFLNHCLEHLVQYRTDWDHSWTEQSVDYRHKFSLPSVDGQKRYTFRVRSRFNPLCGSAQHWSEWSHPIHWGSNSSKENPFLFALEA
Assay Metric: pEC50
// field semantics: pEC50 = negative decimal log of concentration (mol/L)

>  <Binder>
38-MP07A11 VHH-hFc, monospecific monovalent (Fc fusion, part only; not given: Both Fc arms and linker, not shown: another chain or arm of the molecule; a dimerising Fc or GST; small tags and cut ends) VHH: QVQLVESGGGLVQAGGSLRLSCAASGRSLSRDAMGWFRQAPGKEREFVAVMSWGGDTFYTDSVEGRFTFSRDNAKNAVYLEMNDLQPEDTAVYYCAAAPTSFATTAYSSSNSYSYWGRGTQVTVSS

>  <pEC50>
9.80

$$$$
>  <Binder>
28-MP04D02 VHH-hFc, monospecific monovalent (Fc fusion, part only; not given: Both Fc arms and linker, not shown: another chain or arm of the molecule; a dimerising Fc or GST; large carriers; small tags and cut ends) VHH: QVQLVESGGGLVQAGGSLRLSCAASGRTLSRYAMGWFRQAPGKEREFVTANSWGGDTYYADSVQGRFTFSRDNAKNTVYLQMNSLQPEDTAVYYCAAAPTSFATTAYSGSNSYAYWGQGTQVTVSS

>  <pEC50>
9.14

$$$$
>  <Binder>
27-MP04G01 VHH-hFc, monospecific monovalent (Fc fusion, part only; not given: Both Fc arms and linker, not shown: another chain or arm of the molecule; a dimerising Fc or GST; large carriers; small tags and cut ends) VHH: QVQLVESGGGLVQAGGSLTLSCAAPGRTFGTDVVGWFRQAPGKEREFVASISRSGDGIYYDDSVKGRFTISRNNAWNTVNLQMNSLKVEDTAVYYCAAGDGWSTYDYWGQGTQVTVSS

>  <pEC50>
9.82

$$$$

IN: Find the recorded pEC50 belonging to 34-MP04A12 VHH-hFc, monospecific monovalent (Fc fusion, part only; not given: Both Fc arms and linker, not shown: another chain or arm of the molecule; a dimerising Fc or GST; large carriers; small tags and cut ends) VHH: QVQLVESGGGLVQAGSSLRLSCAASGRTLSRLAMGWFRQAPGKEREFVAVNSWGGDTFYADSVEGRFTYSRDNAKSAVYLQMNSLQPEDTAVYYCAAAPTSFATTAYSSSNSYAYWGQGAQVTVSS and report it.
OUT: 9.80
